B1: library; a variant is named by its letters at N, in order (parent)
chain: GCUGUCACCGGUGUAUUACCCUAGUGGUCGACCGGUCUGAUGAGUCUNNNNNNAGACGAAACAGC

Variants of: B1
Assay: normalized RNA/DNA level with ligand (relative to sTRSVctl = 100) (log10 (% of sTRSVctl)); ligand: hypoxanthine (xanthine aptamer); higher = less ribozyme self-cleavage, higher mRNA level
Details: ligand concentration (+) RNA-Seq: 5 mM, HEK293T, reporter: mCherry (pCS4076), ligand present: yes
normalized RNA/DNA level with ligand (log10): recorded values
Form rule: numeric answer, no unit written next to it.

GAAUUG	1.81
GCACCA	1.94
ACGAGC	1.84
CUAGAG	1.88

What normalized RNA/DNA level with ligand (log10) value was documented for this variant, UAGUGU ?
1.9

Please give the measured normalized RNA/DNA level with ligand (log10) for this variant: AAAAAG
1.84

So what does the record say about normalized RNA/DNA level with ligand (log10) for AAUGAU ?
1.88

// normalized RNA/DNA level with ligand (log10) lookup, key: AAGGCU
1.9

Given the variant UGUUAC , what is its reported normalized RNA/DNA level with ligand (log10)?
1.91

Please report the recorded normalized RNA/DNA level with ligand (log10) for AGCUUA .
1.91

Sample AUAGAU — what was its normalized RNA/DNA level with ligand (log10)?
1.91

Return reported normalized RNA/DNA level with ligand (log10); argument: UACAAG
1.93

Query (variant): CGAAAU ; field requested: normalized RNA/DNA level with ligand (log10)
1.91

For GCGAAC , what is its reported normalized RNA/DNA level with ligand (log10)?
1.71

Query: normalized RNA/DNA level with ligand (log10); subject: AGGCCU
1.94

What normalized RNA/DNA level with ligand (log10) value was documented for this variant, UCACAC ?
1.94

Could you share which normalized RNA/DNA level with ligand (log10) value was measured for GAAUAC ?
1.89

For the variant GUACCU , what normalized RNA/DNA level with ligand (log10) is on record?
1.98

Consider the variant shown here: CAAAAA What is its recorded normalized RNA/DNA level with ligand (log10)?
1.9

Would you kindly share the measured normalized RNA/DNA level with ligand (log10) for ACGCCU ?
1.95

Which measured normalized RNA/DNA level with ligand (log10) value corresponds to GGUCUG ?
1.87
